For each entry below, report its NF-kB SEAP reporter activity value.
# System: RAW-Dual
# Measurement protocol: NF-kB SEAP reporter activity, fold change vs agonist alone; cytotoxicity flag (confluency mask): not cytotoxic; higher = enhanced NF-kB activity
# Experimental parameters: agonist: Pam3CSK4 (TLR2/1) 0.1 ug/mL
In all, about 2,900 compounds were measured (“NF-kB SEAP reporter activity, fold change vs agonist alone”: median about 0.99, highest 2% from about 2.6 on). The full list was thinned out, with the highest values kept by preference.

Sample answers from the record:
Nc1nc(NC2CC2)c2ncn(C3C=CC(CO)C3)c2n1 (stereo not drawn) (library stock concentration (final ~1000-fold dilution): 10 mM) = 1.07
COc1ccc(NC(=O)c2ccc(C(=N)N(C)C)cc2)c(C(=O)Nc2ccc(Cl)cn2)c1.O=C(O)/C=C\C(=O)O (library stock concentration (final ~1000-fold dilution): 10 mM) = 1.06

Which NF-kB SEAP reporter activity is reported for this compound? CC1CN(CC(Cc2ccccc2)C(=O)NCC(=O)O)CCC1(C)c1cccc(O)c1 (stereo not drawn) (library stock concentration (final ~1000-fold dilution): 10 mM)
0.609

###

# System: RAW-Dual
# Measurement protocol: NF-kB SEAP reporter activity, fold change vs agonist alone; cytotoxicity flag (confluency mask): not cytotoxic; higher = enhanced NF-kB activity
# Experimental parameters: agonist: LPS (TLR4) 0.1 ug/mL
The full ranking holds about 2,900 compounds; the median of “NF-kB SEAP reporter activity, fold change vs agonist alone” is about 0.99, and the highest 2% start at about 2.6. For the sample, the highest values were picked, then their nearest neighbours and some compounds at random.
Exercise: state measured NF-kB SEAP reporter activity for each of the molecules provided.
Give bare numbers.

# count of solved cases: 5
C=C1C(CO)C(O)CC1n1cnc2c(=O)nc(N)[nH]c21 (configuration not stated) (library stock concentration (final ~1000-fold dilution): 10 mM) = 1.32
CC1CC(=O)c2c(ccc3c2C(=O)c2cccc(O)c2C3=O)C1 (configuration not stated) (library stock concentration (final ~1000-fold dilution): 10 mM) = 1.64
C=CC(=O)Nc1cc(Nc2nccc(-n3cc(CN(C)C)c(-c4ccccc4)n3)n2)c(OC)cc1N1CCOCC1 (library stock concentration (final ~1000-fold dilution): 2 mM) = 1.37
Cl.NC12CC3CC(CC(C3)C1)C2 (library stock concentration (final ~1000-fold dilution): 10 mM) = 1.03
Cl.Cl.c1cc(-c2cnn3cc(-c4ccc(OCCN5CCCCC5)cc4)cnc23)ccn1 (library stock concentration (final ~1000-fold dilution): 10 mM water) = 1.69

Please give NF-kB SEAP reporter activity for each item listed below.
1. Cl.Nc1ccn(C2OC(CO)C(O)C2O)c(=O)n1 (configuration not stated) (library stock concentration (final ~1000-fold dilution): 10 mM)
2. O=c1nc(N2CCOCC2)oc2c(-c3cccc4c3sc3ccccc34)cccc12 (library stock concentration (final ~1000-fold dilution): 10 mM)
3. C=C(C)C1CCC2(C)CCC3(C)C(CCC4C5(C)CCC(O)C(C)(C)C5CCC43C)C12 (configuration not stated) (library stock concentration (final ~1000-fold dilution): 2 mM)
4. O=c1cc(N2CCOCC2)oc2c1ccc1ccccc12 (library stock concentration (final ~1000-fold dilution): 2 mM)
5. CSCC(N)C(=O)O (configuration not stated) (library stock concentration (final ~1000-fold dilution): 10 mM)
6. Nc1cc(C(F)(F)F)c(-c2nc(N3CCOCC3)nc(N3CCOCC3)n2)cn1 (library stock concentration (final ~1000-fold dilution): 10 mM)
7. COCCc1ccc(OCC(O)CNC(C)C)cc1.COCCc1ccc(OCC(O)CNC(C)C)cc1.O=C(O)CCC(=O)O (configuration not stated) (library stock concentration (final ~1000-fold dilution): 10 mM)

0.959
3.45
1.25
1.12
1.3
0.943
1.32

###

# System: RAW-Dual
# Measurement protocol: NF-kB SEAP reporter activity, fold change vs agonist alone; cytotoxicity flag (confluency mask): cytotoxic (confluency <70% of control); higher = enhanced NF-kB activity
# Experimental parameters: agonist: ODN 1826 (TLR9) 0.5 ug/mL
The full ranking holds about 2,900 compounds; the median of “NF-kB SEAP reporter activity, fold change vs agonist alone” is about 0.99, and the highest 2% start at about 2.6. What follows is part of a selection rich in the highest values, with near analogues and random picks from the rest.
Assignment: determine reported NF-kB SEAP reporter activity for the given molecules.
One number for each entry.

Give NF-kB SEAP reporter activity for each listed item.
1. O=C(CCCCCCNC(=O)c1cnc(N(c2ccccc2)c2ccccc2)nc1)NO (library stock concentration (final ~1000-fold dilution): 10 mM)
2. COc1cc(N2CCC(N)CC2)ccc1Nc1ncc(Cl)c(-c2c[nH]c3ccccc23)n1 (library stock concentration (final ~1000-fold dilution): 10 mM)
3. Cc1nc(Nc2cnn(C3CCNCC3)c2)nc2c1N(C)C(=O)c1cc3ccccc3cc1N2C (library stock concentration (final ~1000-fold dilution): 10 mM)
4. O=C(NC1(c2ccccc2)CC1)c1c(CN2CCC(N3CCCCC3)CC2)c(-c2cccc(C(F)(F)F)c2)nc2cc(Br)ccc12 (library stock concentration (final ~1000-fold dilution): 10 mM)
5. CNC1CCC(c2ccc(Cl)c(Cl)c2)c2ccccc21.Cl (stereo unspecified) (library stock concentration (final ~1000-fold dilution): 10 mM)

1. 1.3
2. 0.19
3. 0.387
4. 0.897
5. 0.405

Fill in NF-kB SEAP reporter activity for each of the 5 molecules listed.
1. CC(O)C(=O)O.CN1CCN(c2ccc3nc(-c4c(N)c5c(F)cccc5[nH]c4=O)[nH]c3c2)CC1 (library stock concentration (final ~1000-fold dilution): 10 mM)
2. CCOC(=O)C1=C(COCCN)NC(C)=C(C(=O)OC)C1c1ccccc1Cl.O=S(=O)(O)c1ccccc1 (stereo unspecified) (library stock concentration (final ~1000-fold dilution): 10 mM)
3. Cl.Nc1ncccc1-c1nc2ccc(-c3ccccc3)nc2n1-c1ccc(C2(N)CCC2)cc1 (library stock concentration (final ~1000-fold dilution): 10 mM)
4. O=C(c1ccc(Oc2ccccc2)cc1Cl)c1c[nH]c2ncnc(NC3CCC(CO)OC3)c12 (stereo unspecified) (library stock concentration (final ~1000-fold dilution): 10 mM)
5. O=C(CCCCCCC(=O)N/N=C/c1ccc(N(c2ccccc2)c2ccccc2)cc1)NO (library stock concentration (final ~1000-fold dilution): 10 mM)

1. 0.18
2. 0.532
3. 0.218
4. 0.161
5. 2.71

Query the reported NF-kB SEAP reporter activity for RAW-Dual; item: C=Cc1c(C)c2cc3nc(cc4[nH]c(cc5nc(cc1[nH]2)C(C)=C5CCC(=O)O)c(CCC(=O)OC)c4C)C1(C)C3=CC=C(C(=O)OC)C1C(=O)OC (stereo unspecified) (library stock concentration (final ~1000-fold dilution): 10 mM)
0.233

###

# Tested on: RAW-Dual
# Measurement protocol: NF-kB SEAP reporter activity, fold change vs agonist alone; cytotoxicity flag (confluency mask): not cytotoxic; higher = enhanced NF-kB activity
# Experimental parameters: agonist: LPS (TLR4) 0.1 ug/mL
The full ranking holds about 2,900 compounds; the median of “NF-kB SEAP reporter activity, fold change vs agonist alone” is about 0.99, and the highest 2% start at about 2.6. The sample as a whole holds a higher share of the highest values than the screen did.
Metric: NF-kB SEAP reporter activity
Answers are plain numbers.

Example compounds with recorded NF-kB SEAP reporter activity:
CC(C)C1C(=O)NC(CCCNC(=N)N)C(=O)NCC(=O)NC(CC(=O)O)C(=O)NC(Cc2ccccc2)C(=O)N1C.O=C(O)C(F)(F)F (stereo unspecified) (library stock concentration (final ~1000-fold dilution): 10 mM) = 0.99
Cc1nn(CC(F)(F)F)cc1Nc1ncc(Br)c(NCc2ccc(S(N)(=O)=O)cc2)n1 (library stock concentration (final ~1000-fold dilution): 10 mM) = 0.744
CC(C)n1nc(-c2cc3cc(O)ccc3[nH]2)c2c(N)ncnc21 (library stock concentration (final ~1000-fold dilution): 10 mM) = 3.13
O=c1cc(-c2ccc(O)c(O)c2O)oc2ccccc12 (library stock concentration (final ~1000-fold dilution): 10 mM) = 1.08
CC1c2cccc(O)c2C(=O)C2=C(O)C3(O)C(=O)C(C(N)=O)=C(O)C(N(C)C)C3C(O)C21.CC1c2cccc(O)c2C(=O)C2=C(O)C3(O)C(=O)C(C(N)=O)=C(O)C(N(C)C)C3C(O)C21.CCO.Cl.Cl.O (stereo unspecified) (library stock concentration (final ~1000-fold dilution): 10 mM) = 1.6

Look at each compound and report its NF-kB SEAP reporter activity.
1. NC(=O)c1cccc2nc(-c3ccc(C4CCCN4)cc3F)[nH]c12 (stereo unspecified) (library stock concentration (final ~1000-fold dilution): 10 mM)
2. Cc1cc2ncc(C(=O)NCC(C)(C)NCC(=O)N3CCCC3C#N)cn2n1 (stereo unspecified) (library stock concentration (final ~1000-fold dilution): 10 mM)
3. O=C(CCNC(=O)c1ccc(OC(F)(F)F)cc1)NC1CCCc2ccccc21 (stereo unspecified) (library stock concentration (final ~1000-fold dilution): 10 mM)
4. CCCC1CC(C(=O)NC(C(C)Cl)C2OC(SC)C(O)C(O)C2O)N(C)C1.Cl (stereo unspecified) (library stock concentration (final ~1000-fold dilution): 10 mM)

1. 0.553
2. 1.57
3. 0.767
4. 1.11
